# System: HIF-2α HIS TAG-PASB Domain
# method: HIF-2α Scintillation Proximity Assay (SPA)
# Format: binding
# Procedure: The percent inhibition was determined and IC50 values were calculated using the Dotmatics system based on the following equation: % inhibition=[(high control−sample)/(high control−low control)]×100.
pIC50: −log10 of the molar value.
# pIC50 >= 7 gives Criterion met, anything below gives Criterion not met

Example results:
N#Cc1cc(F)cc(Oc2ccc(S(=N)(=O)C(F)(F)F)c3c2CC(F)(F)[C@H]3O)c1 (single isomer, unassigned) [Example 305]
Criterion met
O=S(=O)(c1ccc(Oc2cc(F)cc(F)c2)c2c1[C@H](O)CC2)C(F)(F)F
Criterion met
CS(=O)(=O)c1ccc(Oc2cc(F)cc(Cl)c2)c(C(F)F)c1C#N
Criterion met
O=Cc1c(S(=O)(=O)C(F)(F)F)ccc(Oc2cc(F)cc(Cl)c2)c1Br
Criterion met

Record O=S(=O)(c1ccc(Oc2ccc(F)cc2)c2c1C(O)CC2)C(F)(F)F (stereo not drawn) ; criterion: pIC50 no lower than 7. Met?
Criterion not met

Same question, N#CN=S(=O)(c1ccc(Oc2cc(F)cc(C#N)c2)c2c1[C@H](O)[C@H](F)C2)C(F)F (stereo partly drawn) [Compound 297] this time
Criterion not met

Also, `N#Cc1c(S(=O)(=O)C(F)(F)F)ccc(Oc2cc(F)cc(Cl)c2)c1Br` please.
Criterion met

Quick one: N#Cc1cncc(Oc2ccc(S(=N)(=O)C(F)(F)F)c3c2CC(F)(F)[C@H]3O)c1 (stereo partly drawn) [Example 314]
Criterion met

Follow-up entry: `CS(=O)(=O)c1ccc(Oc2cc(F)cc(Cl)c2)c(Br)c1`
Criterion not met

# iterate: `CNCc1c(S(=O)(=O)C(F)(F)F)ccc(Oc2cc(F)cc(Cl)c2)c1Br`
Criterion not met

How about N#Cc1cc(F)cc(Oc2ccc(S(=O)(=O)C(F)F)c3c2CCC3F)c1 (stereo not drawn) ?
Criterion not met

And what about the compound `CS(=O)(=O)c1ccc(Oc2cncc(Br)c2)c2c1[C@H](O)C(F)(F)C2` ?
Criterion met

----------
# Test system: HIF-2α HIS TAG-PASB Domain
# method: HIF-2α Scintillation Proximity Assay (SPA)
# Type: binding
endpointLabel: pIC50
In plain terms, pIC50 is the concentration in mol/L turned into minus its base-10 logarithm.

Completed entries (count: 3):
N=S(=O)(c1ccc(Oc2cc(F)cc(Cl)c2)c(Br)c1Cl)C(F)(F)F (stereo not shown)
6.62
CS(=O)(=O)c1ccc(Oc2cncc(C#N)c2)c2c1[C@H](O)[C@H](F)[C@@H]2F
7.13
N#Cc1cncc(Oc2ccc(S(=N)(=O)C(F)(F)F)c3c2CC(F)(F)[C@H]3O)c1 (stereo partly shown) [Example 315]
7.63

Suppose we examine the compound `O=S(=O)(c1ccc(Oc2cncc(Cl)c2)c2c1[C@H](O)CC2)C(F)(F)F` ; what pIC50 value has been reported?
6.14

Now the compound `CS(=O)(=O)c1ccc(Oc2cc(F)cc(C#N)c2)c(C#N)c1Cl`
6.49

Then what about the compound CS(=O)(=NC#N)c1ccc(Oc2cc(F)cc(C#N)c2)c2c1[C@H](O)[C@H](F)C2 (stereo partly shown) ?
7.20

Do the same for `O=C1CCc2c(Oc3cc(F)cc(Cl)c3)ccc(S(=O)(=O)C(F)F)c21` please
6.92

----------
# Tested on: HIF-2α HIS TAG-PASB Domain
# method: HIF-2α Scintillation Proximity Assay (SPA)
# Format: binding
Attribute: log10(IC50)
Plainly stated, the numbers are log10 of IC50 given in nM.

C[S+]([O-])c1ccc(Oc2cc(F)cc(C#N)c2)c2c1[C@H](O)C(F)(F)C2 (stereo partly shown)
3.30

Which log10(IC50) is listed for `O=S(=O)(c1ccc(Oc2cc(F)cc(Cl)c2)c(Br)c1Cl)C(F)(F)F` ?
1.36

Same thing, different molecule: `N#Cc1cc(F)cc(Oc2ccc(S(=O)(=O)C(F)F)c(CO)c2Br)c1`
1.34

Also need `CC(=O)c1c(S(=O)(=O)C(F)(F)F)ccc(Oc2cc(F)cc(Cl)c2)c1Br` , thanks.
2.43

----------
# Tested on: HIF-2α HIS TAG-PASB Domain
# method: HIF-2α Scintillation Proximity Assay (SPA)
# Assay type: binding
endpointLabel: IC50 (nM)
State just the number; it will be interpreted in nM.

For orientation, consider the following solved cases.
Cc1c(Oc2cc(F)cc(C#N)c2)ccc(S(=O)(=O)C(F)(F)F)c1/C=C/C(=O)NCc1ccccc1
5700
N=S(=O)(c1ccc(Oc2cc(F)cc(Cl)c2)c(Br)c1)C(F)F (stereo not shown)
1300
N#Cc1cc(F)cc(Oc2ccc(S(=N)(=O)C(F)(F)F)c3c2CCC3O)c1 (stereo not shown) [Compound 258]
410
C[C@@]1(F)Cc2c(Oc3cc(F)cc(C#N)c3)ccc(S(C)(=O)=O)c2[C@@H]1O
2030
O=S(=O)(c1ccc(Oc2cc(F)c(F)c3[nH]ncc23)c2c1C(O)C(F)(F)C2)C(F)(F)F (stereo not shown)
640
CS(=O)(=NC#N)c1ccc(Oc2cncc(C#N)c2)c2c1[C@H](O)C(F)(F)[C@@H]2F (single isomer, unassigned) [Compound 321]
32

Find the recorded IC50 belonging to `N#Cc1ccc(Oc2cc(F)cc(F)c2)c2c1[C@H](O)CC2` and report it.
5000

Then what about the compound `N#Cc1cc(Oc2ccc(S(=O)(=O)C(F)(F)F)c3c2CC(F)(F)[C@H]3O)c[n+]([O-])c1` ?
92

----------
Readings of IC50 for the listed compounds
# Test system: HIF-2α HIS TAG-PASB Domain
# method: HIF-2α Scintillation Proximity Assay (SPA)
# Assay type: binding
Record the value in nM, omitting the unit from your answer.

Enter reported IC50 observed with HIF-2α HIS TAG-PASB Domain for `O=[N+]([O-])c1c(Oc2cc(F)cc(Cl)c2)ccc(C(F)(F)F)c1Cl`
77

`Fc1cc(Cl)cc(Oc2ccc(C(F)(F)F)c(Cl)c2Br)c1` , same question.
2200

Try the compound `Cc1c(S(C)(=O)=O)ccc(Oc2cc(F)cc(F)c2)c1C#N`
46

// same read-out, input: N#Cc1cc(F)cc(Oc2ccc(S(=O)(=O)CCO)c3c2CC(F)(F)C3O)c1 (stereo not drawn)
1300

Check NC1CCc2c(Oc3cc(F)cc(F)c3)ccc(S(=O)(=O)C(F)F)c21 (stereo not drawn) too.
38000

And for CS(=O)(=O)c1ccc(Oc2cc(C#N)cc(C(F)F)c2)c2c1C(O)CC2 (stereo not drawn) ?
880

Next compound up: `Cc1c(S(=O)(=O)C(F)F)ccc(Oc2cc(F)cc(Cl)c2)c1C#N`
18

And for CS(=O)(=O)N=S(=O)(CF)c1ccc(Oc2cc(F)cc(C#N)c2)c2c1[C@H](O)C(F)(F)C2 (stereo partly drawn) ?
5600

Can you check `N#Cc1c(I)ccc(Oc2cc(F)cc(Cl)c2)c1Br` next?
3100

Now give it for `CO[C@H]1c2c(S(C)(=O)=O)ccc(Oc3cc(F)cc(C#N)c3)c2CC1(F)F` too.
17000

// same read-out, input: `Cc1cc(Oc2ccc(S(=O)(=O)C(F)F)c3c2CC(F)(F)C3=O)ccc1F`
770

Input `CS(=O)(=O)c1ccc(Oc2cc(F)cc(C#N)c2)c2c1[C@H](O)C(F)(F)[C@H]2O`
8700

----------
# Test system: HIF-2α HIS TAG-PASB Domain
# method: HIF-2α Scintillation Proximity Assay (SPA)
# Assay type: binding
pIC50: −log10 of the molar value.
// reported pIC50 per item

Solved cases (2 shown):
CS(=O)(=O)c1ccc(Oc2cc(F)cc(Cl)c2)c2c1[C@H](O)C(F)(F)C2
> 8.30
CS(=O)(=O)c1ccc(Oc2cncc(F)c2)c2c1[C@H](O)C(F)(F)[C@@H]2F
> 8.30

I'd like to know its pIC50. The compound in question is N#Cc1cc(F)cc(Oc2ccc(S(=O)(=O)C3CCC3)c3c2CCC3O)c1 (stereo not drawn)
< 4.00
